System Tested: human mGluR5A (Homo sapiens, UniProt P41594)
Construct: expressed in transfected cells
Sequence (P41594 21-1180 isoform P41594-2 limits assumed): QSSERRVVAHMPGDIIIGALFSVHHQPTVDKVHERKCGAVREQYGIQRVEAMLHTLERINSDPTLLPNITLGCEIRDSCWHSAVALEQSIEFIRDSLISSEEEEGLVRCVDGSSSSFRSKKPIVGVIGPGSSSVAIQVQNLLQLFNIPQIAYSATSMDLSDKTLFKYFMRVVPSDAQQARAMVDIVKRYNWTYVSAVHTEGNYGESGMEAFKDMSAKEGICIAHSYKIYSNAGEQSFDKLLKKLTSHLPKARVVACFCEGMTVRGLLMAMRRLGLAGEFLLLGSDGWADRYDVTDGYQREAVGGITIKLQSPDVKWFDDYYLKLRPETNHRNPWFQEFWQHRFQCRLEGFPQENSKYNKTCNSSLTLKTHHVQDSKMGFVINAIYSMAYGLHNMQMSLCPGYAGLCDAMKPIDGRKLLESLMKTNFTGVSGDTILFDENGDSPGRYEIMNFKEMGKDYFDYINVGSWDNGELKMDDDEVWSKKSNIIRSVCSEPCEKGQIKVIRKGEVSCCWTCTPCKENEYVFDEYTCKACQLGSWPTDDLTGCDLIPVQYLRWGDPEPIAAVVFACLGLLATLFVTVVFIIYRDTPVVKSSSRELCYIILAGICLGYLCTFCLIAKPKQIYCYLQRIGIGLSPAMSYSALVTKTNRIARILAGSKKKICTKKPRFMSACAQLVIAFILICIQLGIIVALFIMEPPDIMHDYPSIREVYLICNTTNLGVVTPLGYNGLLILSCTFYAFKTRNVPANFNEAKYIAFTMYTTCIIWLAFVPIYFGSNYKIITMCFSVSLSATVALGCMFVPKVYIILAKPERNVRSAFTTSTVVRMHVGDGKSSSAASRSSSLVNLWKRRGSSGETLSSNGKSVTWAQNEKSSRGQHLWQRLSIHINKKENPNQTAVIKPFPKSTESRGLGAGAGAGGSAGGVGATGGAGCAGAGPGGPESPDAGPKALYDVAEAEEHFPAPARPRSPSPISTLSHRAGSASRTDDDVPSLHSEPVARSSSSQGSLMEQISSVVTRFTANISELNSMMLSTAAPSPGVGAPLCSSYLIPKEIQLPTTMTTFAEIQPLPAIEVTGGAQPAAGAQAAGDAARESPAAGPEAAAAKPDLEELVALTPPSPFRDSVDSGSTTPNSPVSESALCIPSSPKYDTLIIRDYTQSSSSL
Assay Explanation: FLIPR Ca2+ mobilization assay, potentiation in the presence of 300 nM glutamate (EC20)
Type: cell-based
Condition Set: potentiation, CHO cells expressing human mGluR5A, in presence of 300 nM glutamate; inflection points; read-out: FLIPR EC50
Experimental Endpoint: EC50 (nM)

A: C[C@@H]1CC[C@H](c2nc(-c3cc(Cl)c[nH]3)no2)CN1C(=O)c1ccc(F)cc1
B: C[C@@H]1CC[C@H](c2noc(-c3ccc(F)cn3)n2)CN1C(=O)c1ccc(F)cc1
C: C[C@H]1CC[C@@H](c2noc(-c3cc(Cl)c[nH]3)n2)CN1C(=O)c1ccc(F)cc1
D: C[C@@H]1CC[C@H](c2nc(-c3cc(Cl)c[nH]3)no2)CN1C(=O)c1ccc(F)nc1
Qu. Endpoint returns the given compounds ordered by ascending EC50. Put the labels in the order asked and list them.
Ans. A, D, B, C
(A: 19 nM, D: 91 nM, B: 210 nM, C: 486 nM)
